Cited source: patent US20230263914A1

tested on: S180 tumor; experiment: Biodistribution in tumor-bearing mice; format: in vivo; conditions: 120 min, i.v., mice bearing S180 tumor, mean ± SD
READOUT TYPE: Bone
Give the value; after it, write the unit.

MOLECULE | Bone
O=C(NC1C(O)OC(CO)C(O)C1O)c1cccc(C[N+]#[C][99Tc+]([C]#[N+]Cc2cccc(C(=O)NC3C(O)OC(CO)C(O)C3O)c2)([C]#[N+]Cc2cccc(C(=O)NC3C(O)OC(CO)C(O)C3O)c2)([C]#[N+]Cc2cccc(C(=O)NC3C(O)OC(CO)C(O)C3O)c2)([C]#[N+]Cc2cccc(C(=O)NC3C(O)OC(CO)C(O)C3O)c2)[C]#[N+]Cc2cccc(C(=O)NC3C(O)OC(CO)C(O)C3O)c2)c1 (stereo not shown) [^99mTc-3-CNPEDG] | 0.30 ± 0.06 % ID/g
O=C(NC1C(O)OC(CO)C(O)C1O)c1cccc([N+]#[C][99Tc+]([C]#[N+]c2cccc(C(=O)NC3C(O)OC(CO)C(O)C3O)c2)([C]#[N+]c2cccc(C(=O)NC3C(O)OC(CO)C(O)C3O)c2)([C]#[N+]c2cccc(C(=O)NC3C(O)OC(CO)C(O)C3O)c2)([C]#[N+]c2cccc(C(=O)NC3C(O)OC(CO)C(O)C3O)c2)[C]#[N+]c2cccc(C(=O)NC3C(O)OC(CO)C(O)C3O)c2)c1 (stereo not shown) [^99mTc-3-CNBzDG] | 0.42 ± 0.03 % ID/g
O=C(NC1C(O)OC(CO)C(O)C1O)c1ccc(CC[N+]#[C][99Tc+]([C]#[N+]CCc2ccc(C(=O)NC3C(O)OC(CO)C(O)C3O)cc2)([C]#[N+]CCc2ccc(C(=O)NC3C(O)OC(CO)C(O)C3O)cc2)([C]#[N+]CCc2ccc(C(=O)NC3C(O)OC(CO)C(O)C3O)cc2)([C]#[N+]CCc2ccc(C(=O)NC3C(O)OC(CO)C(O)C3O)cc2)[C]#[N+]CCc2ccc(C(=O)NC3C(O)OC(CO)C(O)C3O)cc2)cc1 (stereo not shown) [^99mTc-4-CNPeDG] | 0.18 ± 0.03 % ID/g

Turning to the following molecule.
What value of measured Bone is listed for O=C(Cc1ccc(C[N+]#[C][99Tc+]([C]#[N+]Cc2ccc(CC(=O)NC3C(O)OC(CO)C(O)C3O)cc2)([C]#[N+]Cc2ccc(CC(=O)NC3C(O)OC(CO)C(O)C3O)cc2)([C]#[N+]Cc2ccc(CC(=O)NC3C(O)OC(CO)C(O)C3O)cc2)([C]#[N+]Cc2ccc(CC(=O)NC3C(O)OC(CO)C(O)C3O)cc2)[C]#[N+]Cc2ccc(CC(=O)NC3C(O)OC(CO)C(O)C3O)cc2)cc1)NC1C(O)OC(CO)C(O)C1O (stereo not shown) [^99mTc-4-CNMBDG] ? 1.27 ± 0.35 % ID/g
